Known MNTC at 72 h of a selection of compounds
# MEASUREMENT PROTOCOL: In vitro maximum tolerated dose (MTL), Vero cells
# Type: cell-based, African Green Monkey
# ASSAY CONDITIONS: monkey, vero cells, In Vitro

{"columns": ["COMPOUND", "UNIT LABEL", "INEQUALITY SYMBOL", "MNTC at 72 h"],
 "data": [
  ["Cc1ccc(-n2cc(C(N)=O)c(=O)c3ccc(-c4ccncc4)cc32)cc1", "µg/mL", ">", 25],
  ["NC(=O)c1cn(-c2ccc(C(F)(F)F)cc2)c2cc(-c3ccncc3)ccc2c1=O", "µg/mL", ">", 100],
  ["NC(=O)c1cn(-c2cccc(F)c2)c2cc(-c3ccncc3)ccc2c1=O [Example 46e]", "µg/mL", ">", 6.25],
  ["CCn1cc(C(=O)NN)c(=O)c2ccc(-c3ccncc3)cc21", "µg/mL", "=", 50],
  ["NC(=O)c1cn(Cc2ccc(Cl)c(Cl)c2)c2cc(-c3ccncc3)ccc2c1=O", "µg/mL", ">", 100],
  ["CCn1cc(C(N)=O)c(=O)c2ccc(-c3cc(C)nc(C)c3)cc21", "µg/mL", "=", 12.5],
  ["CCCCn1cc(C(N)=O)c(=O)c2ccc(-c3ccncc3)cc21", "µg/mL", "=", 6.2],
  ["NC(=O)c1cn(-c2ccccc2F)c2cc(-c3ccncc3)ccc2c1=O", "µg/mL", "=", 1.6],
  ["CCn1cc(C(N)=O)c(=O)c2ccc(-c3ccccn3)cc21", "µg/mL", "=", 25],
  ["NC(=O)c1cn(C2CC2)c2cc(-c3ccncc3)ccc2c1=O", "µg/mL", "=", 25]
]}

====

# MEASUREMENT PROTOCOL: In vitro maximum tolerated dose (MTL), Vero cells
# Format: cell-based, African Green Monkey
# ASSAY CONDITIONS: monkey, vero cells, In Vitro
Catalogue of MNTC at 72 h values

{"columns": ["COMPOUND", "MNTC at 72 h"],
 "data": [
  ["CCn1c(=O)c(C(N)=O)c(O)c2ccc(-c3ccncc3)cc21 [Example 38c]", "> 12.5 µg/mL"],
  ["CC(C)(C)c1ccc(-n2cc(C(N)=O)c(=O)c3ccc(-c4ccncc4)cc32)cc1", "> 25 µg/mL"],
  ["O=C(NCN1CCOCC1)c1cn(-c2ccc(F)cc2)c2cc(-c3ccncc3)ccc2c1=O", "> 12.5 µg/mL"],
  ["CCn1cc(C(N)=O)c(=O)c2ccc(-c3ccno3)cc21 [Example 24c]", "12.5 µg/mL"],
  ["CCn1cc(C(=O)NC)c(=O)c2ccc(-c3ccncc3)cc21", "> 25 µg/mL"],
  ["NC(=O)c1c(N)n(-c2ccc(F)cc2)c2cc(-c3ccncc3)ccc2c1=O [Example 41c]", "> 100 µg/mL"],
  ["NC(=O)c1c(O)n(-c2ccc(F)cc2)c2cc(-c3ccncc3)ccc2c1=O [Example 47e]", "> 100 µg/mL"],
  ["NC(=O)c1cn(-c2ccc(F)cc2)c2cc(-c3cc[n+]([O-])cc3)ccc2c1=O", "> 12.5 µg/mL"],
  ["CCn1cc(C(N)=O)c(=O)c2ccc(-c3ccncc3)cc21", "12.5 µg/mL"]
]}

====

MNTC at 72 h for assorted compounds
# MEASUREMENT PROTOCOL: In vitro maximum tolerated dose (MTL), Vero cells
# Type: cell-based, African Green Monkey
# ASSAY CONDITIONS: monkey, vero cells, In Vitro
READOUT TYPE: MNTC at 72 h (µg/mL)

{"columns": ["COMPOUND", "INEQUALITY SYMBOL", "REPORTED VALUE"],
 "data": [
  ["NC(=O)c1cn(-c2ccc(Cl)c(Cl)c2)c2cc(-c3ccncc3)ccc2c1=O", ">", 12.5],
  ["NC(=O)c1cn(-c2ccncc2)c2cc(-c3ccncc3)ccc2c1=O", ">", 200],
  ["CCCn1cc(C(N)=O)c(=O)c2ccc(-c3ccncc3)cc21", "=", 6.25],
  ["CCN(CC)CNC(=O)c1cn(-c2ccc(F)cc2)c2cc(-c3ccncc3)ccc2c1=O", "=", 12.5],
  ["CCn1cc(C(=O)NN)c(=O)c2ccc(-c3ccccc3)cc21", "=", 25],
  ["NC(=O)c1cn(-c2ccc(F)cc2)c2cc(-c3ccncc3)ccc2c1=O", ">", 3.1],
  ["Cn1cc(C(N)=O)c(=O)c2ccc(-c3ccncc3)cc21", ">", 25],
  ["CCn1cc(C(N)=O)c(=O)c2cc(F)c(-c3ccncc3)cc21", ">", 100],
  ["Cn1c(O)c(C(N)=O)c(=O)c2ccc(-c3ccncc3)cc21 [Example 39b]", "=", 3.1]
]}

====

Consider the following compounds and their measured MNTC at 72 h readings.
# MEASUREMENT PROTOCOL: In vitro maximum tolerated dose (MTL), Vero cells
# Type: cell-based, African Green Monkey
# ASSAY CONDITIONS: monkey, vero cells, In Vitro
READOUT TYPE: MNTC at 72 h (µg/mL)

{"columns": ["COMPOUND", "UNIT LABEL", "INEQUALITY SYMBOL", "REPORTED VALUE"],
 "data": [
  ["CCn1cc(C(N)=O)c(=O)c2ccc(-c3cccnc3)cc21 [Example 27b]", "µg/mL", "=", 50],
  ["CCn1cc(C(=O)NO)c(=O)c2ccc(-c3ccncc3)cc21 [Example 30]", "µg/mL", "=", 25],
  ["COc1ccc(-n2cc(C(N)=O)c(=O)c3ccc(-c4ccncc4)cc32)cc1 [Example 8]", "µg/mL", ">", 25],
  ["Cc1cc(-c2ccc3c(=O)c(C(N)=O)cn(-c4ccc(F)cc4)c3c2)on1 [Example 22f]", "µg/mL", ">", 100],
  ["NC(=O)c1cn(-c2ccc(F)cc2)c2cc(-c3ccncc3)c(F)cc2c1=O [Example 48c]", "µg/mL", "=", 6.25],
  ["CCn1cc(C(N)=O)c(=O)c2ccc(-c3cc(C)no3)cc21 [Example 23d]", "µg/mL", ">", 100],
  ["NC(=O)c1cn(-c2ccccc2)c2cc(-c3ccncc3)ccc2c1=O [Example 21]", "µg/mL", "=", 6.25],
  ["C=CCn1cc(C(N)=O)c(=O)c2ccc(-c3ccncc3)cc21 [Example 19]", "µg/mL", "=", 6.25],
  ["NC(=O)c1cn(-c2ccc(F)cc2)c2cc(-c3ccccc3)ccc2c1=O [Example 44]", "µg/mL", "=", 12.5]
]}

====

# Parameters: species or system albino mice
# ASSAY CONDITIONS: mouse
Readings of In Vivo MTL (Maximum tolerated dose) for the listed compounds

{"columns": ["COMPOUND", "INEQUALITY SYMBOL", "In Vivo MTL (Maximum tolerated dose)"],
 "data": [
  ["CCn1cc(C(N)=O)c(=O)c2ccc(-c3ccccn3)cc21 [Example 20]", "=", 100],
  ["NC(=O)c1cn(-c2ccncc2)c2cc(-c3ccncc3)ccc2c1=O [Example 10]", "=", 75],
  ["CCn1cc(C(N)=O)c(=O)c2ccc(-c3ccno3)cc21 [Example 24c]", ">", 200],
  ["C=CCn1cc(C(N)=O)c(=O)c2ccc(-c3ccncc3)cc21 [Example 19]", "<", 50],
  ["CCn1cc(C(N)=O)c(=O)c2ccc(-c3ccncc3)cc21 [Example 6]", "=", 50],
  ["CCCCn1cc(C(N)=O)c(=O)c2ccc(-c3ccncc3)cc21 [Example 17]", "=", 50],
  ["CCn1cc(C(=O)NN)c(=O)c2ccc(-c3ccncc3)cc21 [Example 29]", "=", 100],
  ["NC(=O)c1cn(-c2ccc(F)cc2F)c2cc(-c3ccncc3)ccc2c1=O [Example 15]", "<", 25],
  ["NC(=O)c1cn(-c2ccc(Br)cc2)c2cc(-c3ccncc3)ccc2c1=O [Example 31]", "=", 50]
]}

====

# Set-up: species or system albino mice
# ASSAY CONDITIONS: mouse
Recorded In Vivo MTL (Maximum tolerated dose), one value per entry.

{"columns": ["COMPOUND", "INEQUALITY SYMBOL", "In Vivo MTL (Maximum tolerated dose)"],
 "data": [
  ["NC(=O)c1cn(-c2cccc(F)c2)c2cc(-c3ccncc3)ccc2c1=O [Example 46e]", "=", 50],
  ["NC(=O)c1cn(-c2ccc(F)cc2)c2cc(-c3ccncc3)c(F)cc2c1=O [Example 48c]", ">", 100],
  ["NC(=O)c1cn(-c2ccc(C(F)(F)F)cc2)c2cc(-c3ccncc3)ccc2c1=O", "=", 50],
  ["CCn1cc(C(=O)NO)c(=O)c2ccc(-c3ccncc3)cc21", "=", 100],
  ["Cc1cc(-c2ccc3c(=O)c(C(N)=O)cn(-c4ccc(F)cc4)c3c2)on1 [Example 22f]", ">", 200],
  ["CCn1cc(C(=O)NN)c(=O)c2ccc(-c3ccccc3)cc21", ">", 200],
  ["CCn1c(N)c(C(N)=O)c(=O)c2ccc(-c3ccncc3)cc21 [Example 40b]", ">", 100],
  ["Cn1c(O)c(C(N)=O)c(=O)c2ccc(-c3ccncc3)cc21 [Example 39b]", "=", 150],
  ["NC(=O)c1cn(-c2ccc(F)cc2)c2cc(-c3ccccc3)ccc2c1=O", ">", 200],
  ["CCN(CC)CNC(=O)c1cn(-c2ccc(F)cc2)c2cc(-c3ccncc3)ccc2c1=O", "=", 100],
  ["NC(=O)c1cn(Cc2ccc(Cl)c(Cl)c2)c2cc(-c3ccncc3)ccc2c1=O", ">", 100],
  ["NC(=O)c1c(N)n(-c2ccc(F)cc2)c2cc(-c3ccncc3)ccc2c1=O [Example 41c]", "=", 100],
  ["CCn1cc(C(=O)NC)c(=O)c2ccc(-c3ccncc3)cc21", "=", 50],
  ["COc1ccc(-n2cc(C(N)=O)c(=O)c3ccc(-c4ccncc4)cc32)cc1", "=", 50],
  ["NC(=O)c1cn(-c2ccccc2)c2cc(-c3ccncc3)ccc2c1=O [Example 45e]", "=", 50],
  ["NC(=O)c1cn(-c2ccc(Cl)c(Cl)c2)c2cc(-c3ccncc3)ccc2c1=O", "=", 100],
  ["NC(=O)c1cn(C2CC2)c2cc(-c3ccncc3)ccc2c1=O", "=", 25]
]}
